Task for the reader: assign each of the following compounds its reported IC50.
Test: Cellular toxicity assay in human PBM cells
Format: cell-based
Conditions: read-out: Cytotoxicity (IC50 μM) PBM

// query Could you tell me which IC50 is on file for COC(=O)N[C@H](C(=O)N1CCCC1c1nc(Cl)c(-c2ccc(-c3ccc(-c4[nH]c([C@@H]5C[C@H](SC)CN5C(=O)[C@@H](NC(=O)OC)C(C)C)nc4Cl)cc3)cc2)[nH]1)C(C)C (some centres unmarked) ?
// result 24.3 µM

// query Could you tell me which IC50 is on file for COC(=O)N[C@H](C(=O)N1CCCC1c1ncc(-c2ccc(-c3ccc(-c4[nH]c([C@@H]5C[C@H](SC)CN5C(=O)[C@@H](NC(=O)OC)C(C)C)nc4Cl)cc3)cc2)[nH]1)C(C)C (some centres unmarked) ?
// result 27.2 µM

// query Could you tell me which IC50 is on file for COC(=O)N[C@H](C(=O)N1CCCC1c1nc(Cl)c(-c2ccc(-c3ccc(-c4cnc([C@@H]5C[C@H]([S+](C)[O-])CN5C(=O)[C@@H](NC(=O)OC)c5ccccc5)[nH]4)cc3)cc2)[nH]1)c1ccccc1 (some centres unmarked) ?
// result 89.7 µM

// query Could you tell me which IC50 is on file for COC(=O)N[C@H](C(=O)N1CCCC1c1nc(Cl)c(-c2ccc(-c3ccc(-c4cnc([C@@H]5C[C@H](SC)CN5C(=O)[C@@H](NC(=O)OC)C(C)C)[nH]4)cc3)cc2)[nH]1)C(C)C (some centres unmarked) ?
// result 60 µM

// query Could you tell me which IC50 is on file for COC(=O)N[C@H](C(=O)N1CCCC1c1ncc(-c2ccc(-c3ccc(-c4[nH]c([C@@H]5C[C@H](SC)CN5C(=O)[C@@H](NC(=O)OC)c5ccccc5)nc4Cl)cc3)cc2)[nH]1)c1ccccc1 (some centres unmarked) ?
// result > 100 µM

----------
System: HCV Replicon RNA (HCV 1b) in Huh 7 Clone B cells
Assay: HCV Replicon Assay
Assay type: cell-based
Settings: Hepatitis C virus, 120 h, five days incubation, values in nM
readoutKind: EC90 (nM)
Answer with a number only, understood to be in nM.

// query Could you tell me which EC90 is on file for COC(=O)N[C@H](C(=O)N1CCCC1c1ncc(-c2ccc(-c3ccc(-c4[nH]c([C@@H]5C[C@H]([S+](C)[O-])CN5C(=O)[C@@H](NC(=O)OC)C(C)C)nc4Cl)cc3)cc2)[nH]1)C(C)C (stereo partly shown) [Compound 46] ?
// result 0.3

// query Could you tell me which EC90 is on file for COC(=O)N[C@H](C(=O)N1CCCC1c1ncc(-c2ccc(-c3ccc(-c4[nH]c([C@@H]5C[C@H]([S+](C)[O-])CN5C(=O)[C@@H](NC(=O)OC)c5ccccc5)nc4Cl)cc3)cc2)[nH]1)c1ccccc1 (stereo partly shown) [Compound 48] ?
// result 0.5

// query Could you tell me which EC90 is on file for COC(=O)N[C@H](C(=O)N1CCCC1c1nc(Cl)c(-c2ccc(-c3ccc(-c4[nH]c([C@@H]5C[C@H]([S+](C)[O-])CN5C(=O)[C@@H](NC(=O)OC)c5ccccc5)nc4Cl)cc3)cc2)[nH]1)c1ccccc1 (stereo partly shown) [Compound 52] ?
// result 0.2

// query Could you tell me which EC90 is on file for COC(=O)N[C@H](C(=O)N1CCCC1c1nc(Cl)c(-c2ccc(-c3ccc(-c4cnc([C@@H]5C[C@H]([S+](C)[O-])CN5C(=O)[C@@H](NC(=O)OC)c5ccccc5)[nH]4)cc3)cc2)[nH]1)c1ccccc1 (stereo partly shown) [Compound 44] ?
// result 1.1

This collection of values is drawn from patent US9926295B2.
